# credit: ChEMBL document CHEMBL3870366

- Target or test system: UniProt:P18031
- Sequence (P18031 whole entry): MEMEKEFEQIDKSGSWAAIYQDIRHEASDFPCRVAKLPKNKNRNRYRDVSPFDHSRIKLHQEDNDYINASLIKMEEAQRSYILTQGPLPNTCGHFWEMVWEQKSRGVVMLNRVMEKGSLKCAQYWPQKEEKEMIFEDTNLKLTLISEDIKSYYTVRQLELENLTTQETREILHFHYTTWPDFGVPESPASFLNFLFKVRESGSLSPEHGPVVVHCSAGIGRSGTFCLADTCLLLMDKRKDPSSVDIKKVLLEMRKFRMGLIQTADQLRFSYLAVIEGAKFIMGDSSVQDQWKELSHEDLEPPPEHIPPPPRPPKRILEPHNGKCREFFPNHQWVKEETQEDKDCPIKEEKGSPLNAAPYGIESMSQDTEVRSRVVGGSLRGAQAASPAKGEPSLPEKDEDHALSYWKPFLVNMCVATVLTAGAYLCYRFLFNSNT
- Experiment summary: Inhibition of recombinant human PTP1B expressed in Escherichia coli expression system using pNPP as substrate preincubated for 30 mins followed by substrate addition by […]
Reported endpoint: Ki (µM)
# value in µM; strip the unit string

| Molecule | Ki (µM) |
| --- | --- |
| Nc1c(C(=O)O)cnn1-c1ccc(CN(Cc2ccc(F)cc2)Cc2ccc(Cl)cc2)cc1 | 4.5 |
| Nc1c(C(=O)O)cnn1-c1ccc(CC(c2ccc(F)cc2)c2nc(-c3ccc(Cl)cc3)no2)cc1 (centres undefined) | 4.6 |
| Nc1c(C(=O)O)cnn1-c1ccc(CN(Cc2ccc(Cl)cc2)Cc2ccc(F)c(F)c2)cc1 | 11 |
| COc1ccc(C(Cc2ccc(-n3ncc(C(=O)O)c3N)cc2)c2nc(-c3cccc(F)c3)no2)cc1 (centres undefined) | 8.6 |
| COc1ccc(CN(Cc2ccc(OC)cc2)Cc2ccc(-n3ncc(C(=O)O)c3N)cc2)cc1 | 7.1 |
| COc1ccc(C(Cc2ccc(-n3ncc(C(=O)O)c3N)cc2)c2nc(-c3ccc(Cl)cc3)no2)cc1 (centres undefined) | 4.4 |
| COc1ccc(CN(Cc2ccc(F)cc2)Cc2ccc(-n3ncc(C(=O)O)c3N)cc2)cc1OC | 4.1 |
| COc1ccc(-c2noc(C(Cc3ccc(-n4ncc(C(=O)O)c4N)cc3)c3ccc(F)cc3)n2)cc1 (centres undefined) | 8.1 |

Task: Consider the molecule Nc1c(C(=O)O)cnn1-c1ccc(CN(Cc2ccc(F)cc2)Cc2ccc(F)c(F)c2)cc1 . State its measured Ki.
Result: 13

----------
The reader will find reported inhibition values listed item by item below.
- Target or test system: Tyrosine-protein phosphatase non-receptor type 1 (Homo sapiens) (UniProt P18031)
- Experiment summary: Inhibition of recombinant human PTP1B expressed in Escherichia coli expression system using pNPP as substrate at 10 uM preincubated for 30 mins followed by substrate addition by […]
# value in %; strip the unit string

| Compound | Reported endpoint | Measured value |
| --- | --- | --- |
| COc1ccc(C(Cc2ccc(-n3ncc(C(=O)O)c3N)cc2)c2nc(-c3cccc(F)c3)no2)cc1 (centres undefined) | inhibition | 22 |

Task: Consider the compound Nc1c(C(=O)O)cnn1-c1ccc(CN(Cc2ccc(F)cc2)Cc2ccc(F)cc2)cc1 . State its measured inhibition.
Result: 40.8

Task: Consider the compound COc1ccc(CN(Cc2ccc(F)cc2)Cc2ccc(-n3ncc(C(=O)O)c3N)cc2)cc1OC . State its measured inhibition.
Result: 35.1

Task: Consider the compound Nc1c(C(=O)O)cnn1-c1ccc(CN(Cc2ccc(Cl)cc2)Cc2ccc(F)c(F)c2)cc1 . State its measured inhibition.
Result: 22.5

----------
- Experiment summary: Intrinsic clearance in mouse liver microsomes at 1 uM preincubated for 5 mins followed by NADPH addition measured up to 30 mins by LC-MS/MS analysis
- Assay type: ADME
- Condition set: 0.5 h
Reported endpoint: CLH
Answer with the value and then the unit.

| Molecule | CLH |
| --- | --- |
| COc1ccc(C(Cc2ccc(-n3ncc(C(=O)O)c3N)cc2)c2nc(-c3cccc(F)c3)no2)cc1 (centres undefined) | 1.3 mL/min/g |
| Nc1c(C(=O)O)cnn1-c1ccc(CC(c2ccc(F)cc2)c2nc(-c3ccc(Cl)cc3)no2)cc1 (centres undefined) | 0 mL/min/g |
| Nc1c(C(=O)O)cnn1-c1ccc(CN(Cc2ccc(F)cc2)Cc2ccc(F)c(F)c2)cc1 | 2.7 mL/min/g |
| COc1ccc(-c2noc(C(Cc3ccc(-n4ncc(C(=O)O)c4N)cc3)c3ccc(F)cc3)n2)cc1 (centres undefined) | 1.5 mL/min/g |

Task: Consider the molecule COc1ccc(CN(Cc2ccc(F)cc2)Cc2ccc(-n3ncc(C(=O)O)c3N)cc2)cc1OC . State its measured CLH.
Result: 7.4 mL/min/g

Task: Consider the molecule COc1ccc(C(Cc2ccc(-n3ncc(C(=O)O)c3N)cc2)c2nc(-c3ccc(Cl)cc3)no2)cc1 (centres undefined) . State its measured CLH.
Result: 1.5 mL/min/g

Task: Consider the molecule Nc1c(C(=O)O)cnn1-c1ccc(CN(Cc2ccc(Cl)cc2)Cc2ccc(F)c(F)c2)cc1 . State its measured CLH.
Result: 1.2 mL/min/g

Task: Consider the molecule COc1ccc(CN(Cc2ccc(OC)cc2)Cc2ccc(-n3ncc(C(=O)O)c3N)cc2)cc1 . State its measured CLH.
Result: 5.6 mL/min/g

Task: Consider the molecule Nc1c(C(=O)O)cnn1-c1ccc(CN(Cc2ccc(F)cc2)Cc2ccc(Cl)cc2)cc1 . State its measured CLH.
Result: 2.1 mL/min/g

----------
- Target or test system: Tyrosine-protein phosphatase non-receptor type 1 (Homo sapiens)
- Experiment summary: Inhibition of recombinant human PTP1B expressed in Escherichia coli expression system using pNPP as substrate at 10 uM preincubated for 30 mins followed by substrate addition by […]
Reported endpoint: inhibition (%)
# value in %; strip the unit string

| Molecule | Target or test system | inhibition, % |
| --- | --- | --- |
| Nc1c(C(=O)O)cnn1-c1ccc(CN(Cc2ccc(F)cc2)Cc2ccc(Cl)cc2)cc1 | Tyrosine-protein phosphatase non-receptor type 1 (Homo sapiens) | 43.8 |
| Nc1c(C(=O)O)cnn1-c1ccc(CN(Cc2ccccc2)Cc2ccccc2)cc1 | Tyrosine-protein phosphatase non-receptor type 1 (Homo sapiens) | 8.9 |
| Nc1c(C(=O)O)cnn1-c1ccc(CC(c2ccc(F)cc2)c2nc(-c3cccc(F)c3)no2)cc1 (stereo not given) | Tyrosine-protein phosphatase non-receptor type 1 (Homo sapiens) | 19 |

Task: Consider the molecule COc1ccc(-c2noc(C(Cc3ccc(-n4ncc(C(=O)O)c4N)cc3)c3ccc(F)cc3)n2)cc1 (stereo not given) . State its measured inhibition.
Result: 25.8

Task: Consider the molecule Nc1c(C(=O)O)cnn1-c1ccc(CC(C(=O)c2ccc(F)cc2)c2ccccc2)cc1 (stereo not given) . State its measured inhibition.
Result: 12.1

----------
- Experiment summary: Intrinsic permeability of compound at 50 uM at pH 7.4 after 16 hrs by PAMPA assay
- Format: ADME
Reported endpoint: Papp at 16 h, 50 µM
Answer with the value and then the unit.

| Compound | Papp at 16 h, 50 µM |
| --- | --- |
| Nc1c(C(=O)O)cnn1-c1ccc(CC(c2ccc(F)cc2)c2nc(-c3ccc(Cl)cc3)no2)cc1 (stereo not drawn) | 9.1 ×10⁻⁶ cm/s |
| Nc1c(C(=O)O)cnn1-c1ccc(CN(Cc2ccc(F)cc2)Cc2ccc(F)c(F)c2)cc1 | 27.9 ×10⁻⁶ cm/s |
| COc1ccc(-c2noc(C(Cc3ccc(-n4ncc(C(=O)O)c4N)cc3)c3ccc(F)cc3)n2)cc1 (stereo not drawn) | 0.4 ×10⁻⁶ cm/s |

Task: Consider the compound CC(C)NCC(O)COc1cccc2ccccc12 (stereo not drawn) [PROPRANOLOL] . State its measured Papp at 16 h, 50 µM.
Result: 16.6 ×10⁻⁶ cm/s

Task: Consider the compound Nc1c(C(=O)O)cnn1-c1ccc(CN(Cc2ccc(Cl)cc2)Cc2ccc(F)c(F)c2)cc1 . State its measured Papp at 16 h, 50 µM.
Result: 49.8 ×10⁻⁶ cm/s

Task: Consider the compound Nc1c(C(=O)O)cnn1-c1ccc(CC(C(=O)c2ccc(Cl)cc2)c2ccc(F)c(F)c2)cc1 (stereo not drawn) . State its measured Papp at 16 h, 50 µM.
Result: 1.5 ×10⁻⁶ cm/s

Task: Consider the compound Nc1c(C(=O)O)cnn1-c1ccc(CN(Cc2ccc(F)cc2)Cc2ccc(Cl)cc2)cc1 . State its measured Papp at 16 h, 50 µM.
Result: 10.6 ×10⁻⁶ cm/s

Task: Consider the compound COc1ccc(CN(Cc2ccc(OC)cc2)Cc2ccc(-n3ncc(C(=O)O)c3N)cc2)cc1 . State its measured Papp at 16 h, 50 µM.
Result: 12.5 ×10⁻⁶ cm/s

----------
The reader will find reported inhibition values listed item by item below.
- Target or test system: Tyrosine-protein phosphatase non-receptor type 1 (Homo sapiens) (UniProt P18031)
- Experiment summary: Inhibition of recombinant human PTP1B expressed in Escherichia coli expression system using pNPP as substrate at 100 uM preincubated for 30 mins followed by substrate addition by […]
# value in %; strip the unit string

| Molecule | Unit abbreviation | Measured value |
| --- | --- | --- |
| Nc1c(C(=O)O)cnn1-c1ccc(CC(C(=O)c2ccc(F)cc2)c2ccc(F)c(F)c2)cc1 (stereo unspecified) | % | 82.2 |

Task: Under Tyrosine-protein phosphatase non-receptor type 1 (Homo sapiens) (UniProt P18031): report inhibition of Nc1c(C(=O)O)cnn1-c1ccc(CN(Cc2ccc(F)cc2)Cc2ccc(F)c(F)c2)cc1 .
Result: 95.2

Task: Under Tyrosine-protein phosphatase non-receptor type 1 (Homo sapiens) (UniProt P18031): report inhibition of Nc1c(C(=O)O)cnn1-c1ccc(CC(c2ccc(F)cc2)c2nc(-c3cccc(F)c3)no2)cc1 (stereo unspecified) .
Result: 94.9

Task: Under Tyrosine-protein phosphatase non-receptor type 1 (Homo sapiens) (UniProt P18031): report inhibition of COc1ccc(C(=O)C(Cc2ccc(-n3ncc(C(=O)O)c3N)cc2)c2ccc(F)cc2)cc1 (stereo unspecified) .
Result: 58.5

Task: Under Tyrosine-protein phosphatase non-receptor type 1 (Homo sapiens) (UniProt P18031): report inhibition of Nc1c(C(=O)O)cnn1-c1ccc(CC(C(=O)c2ccc(F)cc2)c2ccccc2)cc1 (stereo unspecified) .
Result: 36.8

Task: Under Tyrosine-protein phosphatase non-receptor type 1 (Homo sapiens) (UniProt P18031): report inhibition of Nc1c(C(=O)O)cnn1-c1ccc(CC(C(=O)c2ccc(F)cc2)c2ccc(F)cc2)cc1 (stereo unspecified) .
Result: 34.4

Task: Under Tyrosine-protein phosphatase non-receptor type 1 (Homo sapiens) (UniProt P18031): report inhibition of Nc1c(C(=O)O)cnn1-c1ccc(CC(C(=O)c2ccc(Cl)cc2)c2ccc(F)cc2)cc1 (stereo unspecified) .
Result: 89.5

Task: Under Tyrosine-protein phosphatase non-receptor type 1 (Homo sapiens) (UniProt P18031): report inhibition of COc1ccc(CN(Cc2ccc(OC)cc2)Cc2ccc(-n3ncc(C(=O)O)c3N)cc2)cc1 .
Result: 76.9

Task: Under Tyrosine-protein phosphatase non-receptor type 1 (Homo sapiens) (UniProt P18031): report inhibition of COc1ccc(CN(Cc2ccc(F)cc2)Cc2ccc(-n3ncc(C(=O)O)c3N)cc2)cc1 .
Result: 82.2
